Just for reference, paper PMC5540273 is where these values come from.

Tested on: BLK
Details: concentration: 1 μM, replicates: in singlicate; n = 1;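 note: KINOMEscan kinase panel screen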

- COMPOUND: "O=C(Nc1n[nH]c2nc(-c3cccs3)c(Br)cc12)C1CCCC1"
  %Inh / %: 0
- COMPOUND: "COc1ccc(-c2coc3ccc(-c4nnc(C)o4)cc23)cc1"
  %Inh / %: 3
- COMPOUND: "O=C(Nc1n[nH]c2nc(-c3ccco3)c(Br)cc12)C1CCN(Cc2ccccc2)C1.O=C(O)[C@H](O)[C@@H](O)C(=O)O (stereo not drawn)"
  %Inh / %: 0
- COMPOUND: "CS(=O)(=O)Cc1ccc(Nc2nccc(-c3c(-c4cccc(NC(=O)C5CCCCC5)c4)nn4ncccc34)n2)cc1"
  %Inh / %: 0
- COMPOUND: "Cl.Cl.Cl.N#Cc1ccc(CCNc2nccc(-c3cccc(CN4CCNCC4)c3)n2)cc1"
  %Inh / %: 0
- COMPOUND: "COc1ccc(CSc2nnc(-c3ccc4c(c3)CCO4)o2)cc1"
  %Inh / %: 0
- COMPOUND: "Cc1cccc2c(-c3ccncn3)c(-c3ccc(F)cc3)nn12"
  %Inh / %: 33
- COMPOUND: "c1ccc(-c2ccnc3[nH]ccc23)cc1"
  %Inh / %: 4
- COMPOUND: "CCn1c(-c2ccccc2)nc2cnccc21"
  %Inh / %: 0
- COMPOUND: "O=c1cc(N2CCOCC2)nc2n(Cc3ccccc3F)ccn12"
  %Inh / %: 21
- COMPOUND: "CN1c2ccc(-c3ccc(C(N)=O)cc3)cc2-c2[nH]ncc2S1(=O)=O"
  %Inh / %: 6
- COMPOUND: "Cc1ccccc1Cn1ccn2c(=O)cc(N3CCOCC3)nc12"
  %Inh / %: 10
- COMPOUND: "Cc1ccc(NC(=O)Nc2ccccc2F)cc1-c1ccc(C(=O)Nc2ccncc2)cc1"
  %Inh / %: 51
- COMPOUND: "COc1cccc(NC(=O)Nc2ccc(C)c(-c3ccc(C(=O)Nc4ccncc4)cc3)c2)c1"
  %Inh / %: 40
- COMPOUND: "FC(F)(F)c1ccccc1-c1cc(-c2c[nH]nc2-c2ccccn2)ccn1"
  %Inh / %: 1
- COMPOUND: "CNCc1ccc2nc(NC(=O)c3ccc(C(C)(C)C)cc3)cn2c1"
  %Inh / %: 0
- COMPOUND: "CC(=O)c1c(C)c2cnc(Nc3ccn(C)n3)nc2n(C2CCCC2)c1=O"
  %Inh / %: 0
- COMPOUND: "COc1ccc(CSc2nnc(-c3ccc4ncsc4c3)o2)cc1C(F)(F)F"
  %Inh / %: 0

====

System: CDKL2
Details: concentration: 1 μM, replicates: in singlicate; n = 1
Kind request: treat 10% as inclusive, so %Inh at 10% or higher is T, anything lower is F.

- COMPOUND: "CCn1c(-c2ccccc2)nc2cnccc21 [SB-733416]"
  TARGET_DESC: "CDKL2"
  CLASS_NAME: "F"
- COMPOUND: "Fc1ccc(-c2nn3cccc(F)c3c2-c2ccncc2)cc1 [GW475620]"
  TARGET_DESC: "CDKL2"
  CLASS_NAME: "T"
- COMPOUND: "O=c1cc(N2CCOCC2)nc2n(Cc3cccc(Cl)c3Cl)c3ccccc3n12 [GSK2299009]"
  TARGET_DESC: "CDKL2"
  CLASS_NAME: "T"
- COMPOUND: "Nc1cccc(-c2ccc3c(N)n[nH]c3c2)n1 [GSK2192730]"
  TARGET_DESC: "CDKL2"
  CLASS_NAME: "T"
- COMPOUND: "Fc1ccc(-c2nc[nH]c2-c2ccncc2)cc1 [SB-217360]"
  TARGET_DESC: "CDKL2"
  CLASS_NAME: "T"
- COMPOUND: "Cc1cccc2c(-c3ccncn3)c(-c3ccc(F)cc3)nn12 [GW515532]"
  TARGET_DESC: "CDKL2"
  CLASS_NAME: "T"
- COMPOUND: "O=C1NC(=O)C(c2ccc(Cl)cc2)=C1Nc1ccc(O)cc1 [SB-340867]"
  TARGET_DESC: "CDKL2"
  CLASS_NAME: "T"
- COMPOUND: "COc1ccc(-c2coc3ccc(-c4nnc(C)o4)cc23)cc1"
  TARGET_DESC: "CDKL2"
  CLASS_NAME: "F"
- COMPOUND: "COc1nccc(-c2c(-c3ccc(F)cc3)ncn2CCCN2CCOCC2)n1 [SB-282852]"
  TARGET_DESC: "CDKL2"
  CLASS_NAME: "T"
- COMPOUND: "CS(=O)(=O)Cc1ccc(Nc2nccc(-c3c(-c4cccc(NC(=O)C5CCCCC5)c4)nn4ncccc34)n2)cc1 [GSK350559]"
  TARGET_DESC: "CDKL2"
  CLASS_NAME: "F"
